The values you see were collected from ChEMBL document CHEMBL2202954.

tested on: SF-268; assay: Cytotoxicity against human SF268 cells assessed as cellular growth at 10 uM by SRB assay; type: functional
Examples of compounds with documented Activity follow.

{"columns": ["SUBSTANCE SMILES", "Activity / %"],
 "data": [
  ["O=C(NCCc1ccccc1)c1cc2cccc([N+](=O)[O-])c2[nH]1", 106.93],
  ["Nc1c(C(=O)Nc2ccccc2)sc2nc3c(cc12)C(=O)CCC3", 53.38],
  ["O=C1N=C(c2ccccc2)S/C1=C\\c1ccc2c(c1)OCO2", 95.75],
  ["Clc1ccc(-c2nc(-c3cccs3)no2)cc1", 105.52],
  ["O=S(=O)(Oc1ccc(-c2cnc3ccccc3n2)cc1)c1ccc2ccccc2c1", 104.06]
]}

----------
Known Activity of a selection of compounds
test system: NCI-H322M; assay: Cytotoxicity against human NCI-H322M cells assessed as cellular growth at 10 uM by SRB assay; assay type: functional
RECORDED ENDPOINT: Activity (%)

{"columns": ["SUBSTANCE SMILES", "RECORDED ENDPOINT", "OBS VALUE"],
 "data": [
  ["O=c1/c(=C/c2ccc(Cl)cc2Cl)sc2nc(-c3ccccc3)nn12", "Activity", 127.05],
  ["Clc1ccc(-c2nc(-c3cccs3)no2)c(Cl)c1", "Activity", 120.06],
  ["N#Cc1ccc(-n2nnc3ccccc32)cc1C#N", "Activity", 111.4],
  ["COc1ccc(NC(=O)c2sc3nc4c(cc3c2N)C(=O)CCC4)cc1", "Activity", 57.79],
  ["O=C1N=C(c2ccccc2)S/C1=C\\c1ccc2c(c1)OCO2", "Activity", 108.21],
  ["Cc1cc(C)c(NC(=O)c2sc3nc4c(cc3c2N)C(=O)CC(C)(C)C4)c(C)c1", "Activity", 115.34],
  ["CC1(C)CCc2cc(-c3ccn(S(=O)(=O)c4ccccc4Cl)n3)ccc2O1", "Activity", 126.42],
  ["Cc1c(OCC(=O)c2ccccc2)ccc2c1oc(=O)c1ccccc12", "Activity", 115.03],
  ["Nc1c(C(=O)Nc2cccc(Cl)c2)sc2nc3c(cc12)C(=O)CCC3", "Activity", 71.82],
  ["O=C(NCc1cccnc1)c1sc2cc([N+](=O)[O-])ccc2c1Cl", "Activity", 101.48],
  ["O=C(Nc1ccc2oc(=O)ccc2c1)c1ccc(-c2ccc(Cl)c(Cl)c2)o1", "Activity", 91.94],
  ["Nc1c(C(=O)Nc2ccccc2)sc2nc3c(cc12)C(=O)CCC3", "Activity", 67.12],
  ["Cc1ccc(S(=O)(=O)Oc2ccc(-c3cnc4ccccc4n3)cc2)cc1", "Activity", 113.67],
  ["Cc1ccc2c(c1)N/C(=C/C(=O)c1ccc(Cl)cc1)C(=O)O2", "Activity", 114.58],
  ["Cc1ccc(CNC(=O)c2[nH]c3ccccc3c2Cl)cc1", "Activity", 111.04]
]}

----------
tested on: UACC-62; assay: Cytotoxicity against human UACC62 cells assessed as cellular growth at 10 uM by SRB assay; assay type: functional
RECORDED ENDPOINT: Activity (%)

{"columns": ["SUBSTANCE SMILES", "RECORDED ENDPOINT", "OBS VALUE"],
 "data": [
  ["Cc1ccc(NC(=O)c2sc3nc(-c4cccs4)ccc3c2N)cc1C", "Activity", 89.05],
  ["O=C(NCCc1ccccc1)c1[nH]c2ccccc2c1Cl", "Activity", 84.19],
  ["Clc1ccc(-c2nc(-c3cccs3)no2)cc1", "Activity", 89.8],
  ["Cc1ccc(NC(=O)c2sc3nc4c(cc3c2N)C(=O)CCC4)c(Br)c1", "Activity", 95.44],
  ["Cc1ccc(S(=O)(=O)Oc2ccc(-c3cnc4ccccc4n3)cc2)cc1", "Activity", 94.5],
  ["O=c1/c(=C/c2ccccc2Cl)sc2nc(-c3ccccc3)nn12", "Activity", 83.77],
  ["Nc1c(C(=O)Nc2ccccc2)sc2nc3c(cc12)C(=O)CCC3", "Activity", 44.06],
  ["Cc1cc(C)c(NC(=O)c2sc3nc4c(cc3c2N)C(=O)CCC4)c(C)c1", "Activity", 23.22],
  ["Cc1ccc(CNC(=O)c2[nH]c3ccccc3c2Cl)cc1", "Activity", 100.21],
  ["c1ccc(-c2nc(-c3cccs3)no2)cc1", "Activity", 93.02],
  ["Clc1ccc(-c2nc(-c3cccs3)no2)c(Cl)c1", "Activity", 88.98],
  ["O=C(Nc1nc2ccc(Cl)cc2s1)c1ccc(Cl)cc1", "Activity", 101.97],
  ["O=C1N=C(c2ccccc2)S/C1=C\\c1ccc2c(c1)OCO2", "Activity", 91.01],
  ["Clc1cccc(-c2nc(-c3cccs3)no2)c1", "Activity", 88.07],
  ["Cc1ccccc1NC(=O)c1sc2nc3c(cc2c1N)C(=O)CCC3", "Activity", 36.9],
  ["Cc1ccc(S(=O)(=O)NC2=NC(=O)/C(=C\\c3ccccc3)S2)cc1", "Activity", 96.39],
  ["O=C(Nc1ccc2oc(=O)ccc2c1)c1ccc(-c2ccc(Cl)c(Cl)c2)o1", "Activity", 75.33],
  ["Cc1cccc(-c2nc(-c3cccs3)no2)c1", "Activity", 86.85],
  ["O=C(NCCc1ccccc1)c1cc2cccc([N+](=O)[O-])c2[nH]1", "Activity", 71.51],
  ["Clc1ccccc1Nc1nnc(-c2ccncc2)s1", "Activity", 95.3],
  ["Cc1ccc(C2=N/C(=C\\c3ccccc3)C(=O)O2)cc1", "Activity", 101.68],
  ["COc1ccc(S(=O)(=O)n2ccc(-c3ccc4c(c3)CCC(C)(C)O4)n2)cc1", "Activity", 50.48],
  ["Cc1c(OCC(=O)c2ccccc2)ccc2c1oc(=O)c1ccccc12", "Activity", 98.05],
  ["COc1cc(/C=c2/sc3nc4ccccc4n3c2=O)cc(I)c1O", "Activity", 79.91],
  ["O=C(Nc1ccc2oc(=O)ccc2c1)c1ccc(-c2ccc(Br)cc2)o1", "Activity", 104.75],
  ["O=C(Nc1nc2ccc(Cl)cc2s1)c1ccc(Cl)cc1Cl", "Activity", 96.19],
  ["O=c1/c(=C/c2ccccc2)sc2nc(-c3ccc(Cl)cc3Cl)nn12", "Activity", 103],
  ["Cc1ccc(Cl)cc1NC(=O)c1sc2nc3c(cc2c1N)C(=O)CCC3", "Activity", 53.09],
  ["O=c1/c(=C/c2ccc(Cl)cc2Cl)sc2nc(-c3ccccc3)nn12", "Activity", 89.1],
  ["COc1ccc(NC(=O)c2sc3nc4c(cc3c2N)C(=O)CCC4)cc1", "Activity", 110.45],
  ["Cc1ccc(NC(=O)c2sc3nc4c(cc3c2N)C(=O)CCC4)cc1Cl", "Activity", 108.17],
  ["O=C(Nc1nc2ccccc2s1)c1ccc(F)cc1", "Activity", 89.52]
]}

----------
system: HT-29; experiment: Cytotoxicity against human HT-29 cells assessed as cellular growth at 10 uM by SRB assay; format: functional

{"columns": ["SUBSTANCE SMILES", "MEASURED ON", "Activity (%)"],
 "data": [
  ["O=S(=O)(Oc1ccc(-c2cnc3ccccc3n2)cc1)c1ccccc1", "HT-29", 78.71],
  ["COc1ccc(S(=O)(=O)n2ccc(-c3ccc4c(c3)CCC(C)(C)O4)n2)cc1", "HT-29", 84.48],
  ["O=C(NCCc1ccccc1)c1cc2cccc([N+](=O)[O-])c2[nH]1", "HT-29", 99.19],
  ["Cc1cccc(-c2nc(-c3cccs3)no2)c1", "HT-29", 98.29],
  ["CC1(C)CCc2cc(-c3ccn(S(=O)(=O)c4ccc(Cl)cc4)n3)ccc2O1", "HT-29", 70.86],
  ["O=C(Nc1ccc2oc(=O)ccc2c1)c1ccc(-c2ccc(Cl)c(Cl)c2)o1", "HT-29", 92.94],
  ["Nc1c(C(=O)NCc2ccccc2)sc2nc3c(cc12)C(=O)CCC3", "HT-29", 116.55],
  ["Nc1c(C(=O)Nc2ccc(Cl)c(Cl)c2)sc2nc(-c3cccs3)ccc12", "HT-29", 87.42],
  ["O=C(NCCc1ccccc1)c1[nH]c2ccccc2c1Cl", "HT-29", 100.49],
  ["COc1ccc2[nH]c(C(=O)NCc3ccccc3)cc2c1", "HT-29", 102.88],
  ["Cc1ccc(Cl)cc1NC(=O)c1sc2nc3c(cc2c1N)C(=O)CCC3", "HT-29", 28.78],
  ["O=C(Nc1ccc2oc(=O)ccc2c1)c1ccc(-c2ccc(Br)cc2)o1", "HT-29", 108.43],
  ["N#Cc1ccc(-n2nnc3ccccc32)cc1C#N", "HT-29", 108.03],
  ["N#Cc1ccc(NC(=O)c2sc3nc4c(cc3c2N)C(=O)CCC4)cc1", "HT-29", 84.91],
  ["COc1ccc2nc(NC(=O)c3ccc(F)cc3)sc2c1", "HT-29", 90.2],
  ["CC1(C)CCc2cc(-c3ccn(S(=O)(=O)c4cccc(C(F)(F)F)c4)n3)ccc2O1", "HT-29", 71.22],
  ["CC1(C)CC(=O)c2cc3c(N)c(C(=O)Nc4ccccc4Cl)sc3nc2C1", "HT-29", 105.6],
  ["O=C(NCc1ccc(Cl)cc1)c1[nH]c2ccccc2c1Cl", "HT-29", 108.03],
  ["Nc1c(C(=O)Nc2ccccc2F)sc2nc3c(cc12)C(=O)CCC3", "HT-29", 12.19],
  ["Cc1ccc2c(c1)N/C(=C/C(=O)c1ccc(Cl)cc1)C(=O)O2", "HT-29", 105.84],
  ["COc1ccc(NC(=O)c2sc3nc4c(cc3c2N)C(=O)CCC4)cc1", "HT-29", 108.88],
  ["c1ccc(-c2nc(-c3cccs3)no2)cc1", "HT-29", 108.03],
  ["O=C(Nc1nc2ccc(Cl)cc2s1)c1ccc(Cl)cc1Cl", "HT-29", 94.25],
  ["Oc1ccccc1-c1nc(-c2cccs2)no1", "HT-29", 111.27],
  ["O=C(Nc1ccc(S(=O)(=O)Nc2nccs2)cc1)c1cccs1", "HT-29", 101.43],
  ["Cc1ccc(NC(=O)c2sc3nc4c(cc3c2N)C(=O)CCC4)c(Br)c1", "HT-29", 107.12],
  ["O=c1/c(=C/c2ccc(Cl)cc2Cl)sc2nc(-c3ccccc3)nn12", "HT-29", 115.55],
  ["Cc1c(OCC(=O)c2ccccc2)ccc2c1oc(=O)c1ccccc12", "HT-29", 100.17],
  ["CC1(C)CC(=O)c2cc3c(N)c(C(=O)NCc4ccccc4)sc3nc2C1", "HT-29", 106.09],
  ["COc1cccc(C(=O)Nc2nc3ccc(Cl)cc3s2)c1", "HT-29", 80.12],
  ["Cc1ccc(C(=O)/C=C2/Nc3ccc(C)cc3OC2=O)cc1", "HT-29", 106.8],
  ["Cc1cc(C)c(NC(=O)c2sc3nc4c(cc3c2N)C(=O)CC(C)(C)C4)c(C)c1", "HT-29", 96.21],
  ["Clc1cccc(-c2nc(-c3cccs3)no2)c1", "HT-29", 95.99]
]}
